ASSAY PROCEDURE: Half life in mouse plasma at 1 mg/kg,iv
Assay type: ADME, organism-based
Entries and their measured half-life follow.
Please make sure the unit comes right after the number.

Example molecules with recorded half-life:
1. CCOC(=O)C1=C(CN2CCN3C(=O)N(CC(C)(C)C(=O)O)C[C@@H]3C2)NC(c2nccs2)=N[C@H]1c1cccc(F)c1C :: 54 min
2. CCOC(=O)C1=C(CN2CCN3C(=O)N(CC(C)(C)C(=O)O)C[C@@H]3C2)NC(c2nccs2)=N[C@H]1c1cccc(F)c1Cl :: 37.2 min
3. CCOC(=O)C1=C(CN2CCN3C(=O)N(CC(C)(C)C(=O)O)C[C@@H]3C2)NC(c2nccs2)=N[C@H]1c1ccc(F)cc1Cl :: 54 min

Noted for `CCOC(=O)C1=C(CN2C[C@H]3CN(C(C)(C)C)C(=O)N3C[C@@H]2C(=O)O)NC(c2nccs2)=N[C@H]1c1ccc(F)cc1Cl` : its half-life reads 30 min

----------
ASSAY PROCEDURE: Oral bioavailability in female Wistar Han rat at 3 mg/kg by LC-MS/MS analysis
Format: ADME, organism-based
PARTICULARS: in vivo
RECORDED METRIC: bioavailability

Noted for `CCOC(=O)C1=C(CN2CCN3C(=O)N(CC(C)(C)C(=O)O)C[C@@H]3C2)NC(c2nccs2)=N[C@H]1c1cccc(F)c1C` : its bioavailability reads 14.3%

----------
ASSAY PROCEDURE: Half life in male minipig at 30 mg/kg,po by LC-MS/MS analysis
Format: ADME, organism-based, Sus scrofa domesticus
PARTICULARS: pig, in vivo
RECORDED METRIC: half-life (h)
Express it in h; write the number only.

Noted for CCOC(=O)C1=C(CN2CCN3C(=O)N(CC(C)(C)C(=O)O)C[C@@H]3C2)NC(c2nccs2)=N[C@H]1c1cccc(F)c1C [LINVENCORVIR] : its half-life reads 7.64

----------
ASSAY PROCEDURE: Tmax in female Wistar Han rat at 30 mg/kg,po by LC-MS/MS analysis
Format: ADME, organism-based
PARTICULARS: in vivo
RECORDED METRIC: Tmax (h)
Express it in h; write the number only.

Noted for `CCOC(=O)C1=C(CN2CCN3C(=O)N(CC(C)(C)C(=O)O)C[C@@H]3C2)NC(c2nccs2)=N[C@H]1c1cccc(F)c1C` : its Tmax reads 2

----------
ASSAY PROCEDURE: Clearance in cynomolgus monkey at 2 mg/kg,iv by LC-MS/MS analysis
Type: ADME, organism-based, Macaca fascicularis
PARTICULARS: in vivo
RECORDED METRIC: clearance (mL/min/kg)
Express it in mL/min/kg; write the number only.

Noted for CCOC(=O)C1=C(CN2CCN3C(=O)N(CC(C)(C)C(=O)O)C[C@@H]3C2)NC(c2nccs2)=N[C@H]1c1cccc(F)c1C [LINVENCORVIR] : its clearance reads 23.6

----------
ASSAY PROCEDURE: Tmax in female cynomolgus monkey at 30 mg/kg,po by LC-MS/MS analysis
Type: ADME, organism-based, Macaca fascicularis
PARTICULARS: in vivo
RECORDED METRIC: Tmax

Noted for `CCOC(=O)C1=C(CN2CCN3C(=O)N(CC(C)(C)C(=O)O)C[C@@H]3C2)NC(c2nccs2)=N[C@H]1c1cccc(F)c1C` : its Tmax reads 2 h
